System: OVCAR-3 ovarian
method.notes: NCI-60 one-dose screen, 48 h
recorded.conditions: 10 µM unless noted
The panel holds about 83,000 compounds, 20% with a hit somewhere; the sample as a whole holds those more often. Active and inactive are the calls of the source. Rule for the calls: active = growth percent below 10; inactive = the rest.
Classes used: active, inactive

> print(dat)
                                    molecule  discrete.label
 1  CC(C)CCC[C@@H](C)[C@H]1CC[C@H]2[C@@H]3CC=C4c5sc(Nc6cc(C(F)(F)F)cc(C(F)(F)F)c6)nc5CC[C@]4(C)[C@H]3CC[C@]12C        inactive
 2   N=C(N)c1ccc(OCCSCCOc2ccc(C(=N)N)cc2)cc1        inactive
 3   O=C(Nc1ncc(Cc2ccccc2)s1)c1sc2ccccc2c1Cl          active
 4  COc1cccc(-c2cn3nc(-c4cn(C)c5ccccc45)sc3n2)c1        inactive
 5  CCCCCCCCn1ccc2cc(NC(=O)CN3CCN(c4cc(C)nc(Cl)n4)CC3)ccc21        inactive
 6  CCCCCCCCCCOC(=O)c1nn(C(C)=O)c2cc(C)c(C)cc12        inactive
 7  Cc1cc(=O)oc2cc(Oc3nc(Br)cn4c(Br)cnc34)ccc12        inactive
 8  CCNC(=O)N1CCc2c(Br)c3c(c(OC)c2C1Cc1ccc(OC)cc1)OCO3 (stereo not given)          active
 9  COc1ccc2[nH]cc(-c3nonc3-c3c[nH]c4ccc(Br)cc34)c2c1        inactive
10  Clc1cccc(C2Cc3cnccc3-c3[nH]c4ccncc4c32)c1 (stereo not given)        inactive
11  O=C(/C=C/c1ccco1)Nc1ncc(Cc2cc(Cl)ccc2Cl)s1          active
12  CN(C)CCCn1c2c(c3ccncc3c1=O)C(=O)c1ccccc1-2          active
13  FC(F)(F)c1[nH]ncc1-c1nc2ccc3[nH]ncc3c2c2c1CCCC2          active
14  COc1ccc2c(c1)CC[C@@H]1[C@@H]2CC[C@]2(C)c3c(cc(C#N)c4c3sc3ccccc34)C[C@@H]12        inactive
15  c1cc(OCCN2CCCCCC2)ccc1CNc1ccc2nc(CCC3CCCCC3)[nH]c2c1        inactive
16  Nc1nc(N)c2c(n1)NC(c1cccc(Nc3ccnc4cc(C(F)(F)F)ccc34)c1)CC(c1ccc3c(c1)OCO3)=N2 (stereo not given)        inactive
17  COc1ccc(C(=O)/C=C/c2ccccc2)cc1S(N)(=O)=O        inactive
18  C#Cc1cccc(NC(=O)C2CCCCN2C(=O)CCl)c1 (stereo not given)          active
19   Cc1c2ncccc2nc2[nH]c3ccc(OCCN(C)C)cc3c12        inactive
20  Brc1ccc(Nc2nc(Nc3cnc4ccccc4c3)c3[nH]cnc3n2)cc1        inactive
21    Fc1cccc(-c2nc(-c3c[nH]c4ncccc34)cs2)c1        inactive
22  COc1ccc(/C=C/C(c2cc(OC)c(OC)c(OC)c2)n2cncn2)cc1O (stereo not given)        inactive
23  COc1ccc(/C=C2\c3cc(OC)c(OC)c(OC)c3CC[C@@H]2O)cc1F          active
24  O=C(Nc1ccc(Oc2cccc(Cl)c2)c(Cl)c1)c1cccnn1        inactive
25       O=[N+]([O-])c1ccccc1Nc1ccc2ccccc2c1        inactive
26  Cc1cc(Cl)nc(N2CCN(CCNc3ccnc4cc(Cl)ccc34)CC2)n1        inactive
27  COc1ccc(C(c2cc(OC)c(OC)c(OC)c2)N2CCCCC2)cc1 (stereo not given)          active
28        N=C(N)c1ccc(-c2ccc(-c3ccccc3)o2)o1        inactive
29  COc1ccc(-c2cc(-c3cc(OC)ccc3OC)nc(SCC(C)=O)c2C#N)cc1        inactive
30  O=C1c2cccnc2C(=O)c2c1c(C(=O)OCCc1ccccn1)c1ccccn21          active
31  COC(=O)[C@@]1(C)CC[C@]2(C)CC[C@]3(C)C4=CC=C5C(=CC(=O)C(O)=C5C)[C@]4(C)[C@@H](O)C[C@@]3(C)[C@@H]2C1          active
32              CC(=O)c1sc(-c2ccc(F)cc2)cc1O        inactive
33  COc1ccc2c(O)c(/C=C3\N=Nc4ncccc43)oc2c1C[C@@H]1CCNC[C@H]1F          active
34  Cc1cc(O)c(=O)cc2c1C[C@H]1CC(C)(C)/C=C/C[C@]3(C)Oc4cc(=O)c(O)cc(C)c4C[C@H]3C[C@H](O)[C@@]1(C)O2        inactive
35              Cc1sc2nc(NCCN)[nH]c(=O)c2c1C        inactive
36  CN1C(=O)N2CN3CCCN(C3)CN3C(=S)NC1C23 (stereo not given)        inactive
37  Cc1ccc2cnc(N)c(C#Cc3cc(C(=O)Nc4ccc(CN5CCN(C)CC5)c(C(F)(F)F)c4)cnc3C)c2c1        inactive
38  Cc1ncc(C(=O)Nc2ccc(CN3CCN(C)CC3)c(C(F)(F)F)c2)cc1C#Cc1cnc(N)c2ccc(C#N)cc12        inactive
39  Cc1cc(NCCCNc2ccnc3cc(Cl)ccc23)nc(Nc2ccc(C(=O)N3CCCCC3)cc2)n1        inactive
40  COc1cc(C=Nc2oc(-c3ccccc3)c(-c3ccccc3)c2C#N)cc(CN2CCCC2)c1O        inactive

---

Test system: 786-0 renal
method.notes: NCI-60 one-dose screen, 48 h
recorded.conditions: 10 µM unless noted
The panel holds about 83,000 compounds, 20% with a hit somewhere; the sample as a whole holds those more often. Active and inactive are the calls of the source. How the source made its calls: active means growth percent below 10; inactive means the rest.
Outcome codes: Y for active, N for inactive

> print(dat)
                                test.smiles  discrete.label
1  O=C(Cn1nc(-c2cccc3ccccc23)ccc1=O)NCc1cccc(Cl)c1               N
2  COc1ccc2c(O)c(/C=C3\N=Nc4ncccc43)oc2c1C[C@@H]1CCNC[C@H]1F               Y
3  O=C(Nc1cc(Cl)cc(Cl)c1)Oc1c(Cl)c(Cl)c(Cl)c(Cl)c1Cl               N
4          Cc1ccccc1N1CCN(C(=S)c2ccccc2)CC1               N
5  COc1cc2c(cc1OCCCN1CCN(C(=S)SCCC(C#N)(c3ccccc3)c3ccccc3)CC1)N=C[C@@H]1CCCN1C2=O               Y

---

Test system: COLO 205 colon
method.notes: NCI-60 one-dose screen, 48 h (100 = growth as untreated, 0 = no growth, -100 = all killed)
recorded.conditions: 10 µM unless noted
The panel holds about 83,000 compounds, 20% with a hit somewhere; the sample as a whole holds those more often.
Threshold -20%. growth below it: 1 (yes). growth at it or above: 0 (no).

> print(dat)
                                    molecule  discrete.label
 1  CCN1C(=O)N(CC)C2C1NN=c1s/c(=C\c3ccc(OC)cc3)c(=O)n12 (stereo not given)          0 (no)
 2  COC(=O)c1c2c(c[n+]([O-])c1C)C(=O)C=C(NCc1ccccc1)C2=O         1 (yes)
 3  Cc1nc2sc(C(=O)Nc3ccccn3)c(N)c2cc1C(C)O (stereo not given)          0 (no)
 4  O=C(/C=C/c1ccccc1)c1ccc(-n2cc(CN3CCN(c4cc5c(cc4F)c(=O)c(C(=O)O)cn5C4CC4)CC3)nn2)cc1          0 (no)
 5  CN(C)CCCn1c2c(c3cnccc3c1=O)C(=O)c1ccccc1-2         1 (yes)
 6  COc1cc2ncnc(Nc3ccc(F)c(Cl)c3)c2cc1OCC(=O)N1CCOCC1          0 (no)
 7  CCOC(=O)c1c(NC(=O)c2ccccc2)sc2c3c(ccc12)OCN(C)C3         1 (yes)
 8  ClC(Cl)c1nc(-c2ccccc2)n2nc(-c3ccccc3)cc2n1         1 (yes)
 9   O=C(c1cccc(N2CCOCC2)n1)c1c[nH]c2ccccc12          0 (no)
10  Cc1c2ccccc2nc2cc3c(cc12)[C@H]1CC[C@]2(C)C(=O)CC[C@H]2[C@@H]1CC3          0 (no)

---

Test system: NCI-H460 lung
method.notes: NCI-60 one-dose screen, 48 h
recorded.conditions: 10 µM unless noted
The panel holds about 83,000 compounds, 20% with a hit somewhere; the sample as a whole holds those more often. Activity calls are given as the source filed them. How the source made its calls: active means growth percent below 10; inactive means the rest.
Outcomes: yes (1) (active), no (0) (inactive)

> print(dat)
                                   compound  discrete.label
1  CC1(C)CC[C@]2(CO)CC[C@]3(C)[C@](O)([C@H](O)C[C@@H]4[C@@]5(C)CCCNC(C)(C)[C@@H]5CC[C@]43C)[C@@H]2C1          no (0)
2  CSc1ccc2c3c(n(C[C@H](O)CO)c(=O)c2c1)-c1ccccc1C3=O         yes (1)
3  COc1cc(/C=C/C(=O)c2cccc(-n3cc(-c4ccc(Cl)cc4)[nH]c3=O)c2)ccc1O          no (0)
4  COc1ccc(C2[C@@H](Cl)C(=O)N2c2cc(OC)c(OC)c(OC)c2)cc1Cl (some centres undefined)         yes (1)
